Listed below: kon values for each entry.
molecular target: T1, AFP158/HLA-A*02:01 complex (human); test: SPR, crude scFv captured, pMHC analyte;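 further: pMHC analyte injected at three concentrations, association phase of one hundred seconds, then running buffer for dissociation, rates fitted from both curves, KD derived from the rates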
T1 construct: flowed as analyte in SPR

These solved cases illustrate the format of a correct answer.
{"columns": ["binder", "result"],
 "data": [
  ["AS170036 VL1VH1-98I108S (scFv, also called 36-AS170036 VL1VH1-98I108S) scFv: QSALTQPRSVSGSPGQSVTISCAGTSSDVGSENYVSWYQQHPGKAPKLMIYQVNKRASGVPDRFSGSKSGNTASLTISGLQAEDEADYYCASYRSSDINIVFGGGTKLTVLGGGGSGGGGSGGGGSEVQLVESGGGLVQPGGSLRLSCAASGFTFSSYAMSWVRQAPGKGLEWVSTINSGTGSPYYADSVKGRFTISRDNSKNTLYLQMNSLRAEDTAVYYCAKNFFDGSWFLSPPAMDYWGQGTLVTVSSHHHHHH", "240000 M⁻¹ s⁻¹"],
  ["AS170036 VL1VH1-57K98I (scFv, also called 11-AS170036 VL1VH1-57K98I) scFv: QSALTQPRSVSGSPGQSVTISCAGTSSDVGSENYVSWYQQHPGKAPKLMIYQVNKRASGVPDRFSGSKSGNTASLTISGLQAEDEADYYCASYRSSDINIVFGGGTKLTVLGGGGSGGGGSGGGGSEVQLVESGGGLVQPGGSLRLSCAASGFTFSSYAMSWVRQAPGKGLEWVSTINSGTGKPYYADSVKGRFTISRDNSKNTLYLQMNSLRAEDTAVYYCAKNFFDGSWFLGPPAMDYWGQGTLVTVSSHHHHHH", "160000 M⁻¹ s⁻¹"]
]}

For the binder AS170036 VL1VH1-57K108S (scFv, also called 27-AS170036 VL1VH1-57K108S) scFv: QSALTQPRSVSGSPGQSVTISCAGTSSDVGSENYVSWYQQHPGKAPKLMIYQVNKRASGVPDRFSGSKSGNTASLTISGLQAEDEADYYCASYRSSDHNIVFGGGTKLTVLGGGGSGGGGSGGGGSEVQLVESGGGLVQPGGSLRLSCAASGFTFSSYAMSWVRQAPGKGLEWVSTINSGTGKPYYADSVKGRFTISRDNSKNTLYLQMNSLRAEDTAVYYCAKNFFDGSWFLSPPAMDYWGQGTLVTVSSHHHHHH , what kon is on record?
120000 M⁻¹ s⁻¹
